method_description: drug combination growth inhibition, ovarian cancer – cell-based, oncology-focused library, rucaparib conditional, profiling panel (AID 1508598)
reported_conditions: patient-derived ovarian cancer cells, CellTiter-Glo viability, 144 h; at 1.25 µM; OCI-P5x cells; without rucaparib
Active and inactive are the calls of the source.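 The calls were made as follows: active = normalized viability below 100% at a tested concentration; inactive = the rest.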
Hello, when you answer, please use one of the following outcomes: 1 = active, 0 = inactive

chemical_string: CN1CCN(CCOc2cc(OC3CCOCC3)c3c(Nc4c(Cl)ccc5c4OCO5)ncnc3c2)CC1
class_label: 1
--
chemical_string: O=C(Nc1ccc(OC(F)(F)F)cc1)c1sccc1NCc1ccnc2ccccc12
class_label: 0
--
chemical_string: CCOc1cc2ncc(C#N)c(Nc3ccc(F)c(Cl)c3)c2cc1NC(=O)/C=C/CN(C)C
class_label: 1

API: the following record is the query input.
Test call for this compound, please: CC1(C)CCC(c2ccc(Cl)cc2)=C(CN2CCN(c3ccc(C(=O)NS(=O)(=O)c4ccc(N[C@H](CCN5CCOCC5)CSc5ccccc5)c(S(=O)(=O)C(F)(F)F)c4)cc3)CC2)C1 1

---

method_description: growth inhibition of DIPG cells – cell-based, MIPE5.0 library, qHTS (AID 1347068);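 as to IC50: cells exposed to compound for 48 hours before viability readout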
reported_conditions: SU-DIPG-XXV viability
Results filed as inconclusive are left out. Active and inactive are the calls of the source. No cut-off is given here; in the data, nearly all actives have IC50 up to about 30 µM.
parameter_measured: IC50

Example entries begin here.
compound: Cc1cc(Nc2ncnc3ccc(NC4=NC(C)(C)CO4)cc23)ccc1Oc1ccn2ncnc2c1
IC50: inactive
//
compound: COC1(c2sc3c(N4CCOCC4)nc(-c4cnc(N)nc4)nc3c2C)COC1
IC50: 1180 nM (active)
//
compound: C=C1[C@H](OC(=O)/C=C(\C)CC)C[C@@H](C(C)C)[C@@H]2[C@H]([C@@H](C)OC(C)=O)C(=O)C[C@@H]12
IC50: inactive
//
compound: Cc1ccc(NC(=O)NCc2ccc3c(c2)CN(C2CCC(=O)NC2=O)C3=O)cc1Cl (centres undefined)
IC50: 3.72 nM (active)
//
compound: O=C1NC(=O)/C(=C/c2ccc3nccc(-c4ccncc4)c3c2)S1
IC50: 1320 nM (active)

For reference, reported IC50 for CCCCc1nc2cc(/C=C/C(=O)NO)ccc2n1CCN(CC)CC stands at 13200 nM (active)

For reference, reported IC50 for CCc1c(O)cc(O)c(C(=O)c2ccc(OCCN3CCOCC3)c(OC)c2)c1CC(=O)N(CCOC)CCOC stands at inactive

For reference, reported IC50 for CC(C)(C)OC(=O)CN(Cc1ccc(Cl)cc1)Cc1ccc([N+](=O)[O-])s1 stands at inactive

For reference, reported IC50 for COc1cc2ncnc(Nc3ccc(F)c(Cl)c3)c2cc1NC(=O)/C=C/CN1CCCCC1 stands at 10500 nM (active)

---

method_description: growth inhibition, single agents and combos, HTB85, cell-based, BGB or cisplatin IC20 combos, synergistic combos for chromothripsis tumors (AID 1671453);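 also: cells exposed for 96 hours before readout; 0% = vehicle DMSO and 100% = high DMSO killing control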
reported_conditions: HTB85 osteosarcoma cells, drug combinations, measured here: with BGB IC20, at 5 µM, stronger effect = higher value
# label = criterion met if inhibition >= 30% else criterion not met

compound: O=C(O)[C@H](Cc1c[nH]c2ccccc12)N1C(=O)c2ccccc2C1=O
class_label: criterion not met

Evaluate Nc1ncnc2c1c(-c1cnc3[nH]ccc3c1)nn2C1CCCC1 : inhibition at minimum 30%? criterion met

Evaluate Nc1ccccc1NC(=O)c1ccc(CNc2nccc(-c3cccnc3)n2)cc1 : inhibition at minimum 30%? criterion met

Evaluate Cc1cn([C@@H]2O[C@H](CO)[C@@H](O)[C@@H]2F)c(=O)[nH]c1=O : inhibition at minimum 30%? criterion not met

Evaluate O=C(CCCCCCNC(=O)c1cnc(N(c2ccccc2)c2ccccc2Cl)nc1)NO : inhibition at minimum 30%? criterion met

Evaluate C=C1[C@H](CO)[C@@H](O)C[C@@H]1n1cnc2c(=O)[nH]c(N)nc21 : inhibition at minimum 30%? criterion not met

Evaluate CO[C@H]1/C=C/O[C@@]2(C)Oc3c(C)c(O)c4c(O)c(c(/C=N\N5CCN(C6CCCC6)CC5)c(O)c4c3C2=O)NC(=O)/C(C)=C\C=C\[C@H](C)[C@H](O)[C@@H](C)[C@@H](O)[C@@H](C)[C@H](OC(C)=O)[C@@H]1C : inhibition at minimum 30%? criterion met

Evaluate COc1ccc(C(=O)C2CCN(CC(=O)N(Cc3nc4c(c(=O)[nH]3)COCC4)CC3CC3)CC2)cc1 : inhibition at minimum 30%? criterion not met

Evaluate O=C(/C=C/c1ccc(CN(CCO)CCc2c[nH]c3ccccc23)cc1)NO : inhibition at minimum 30%? criterion met
